- Measured On: Sulfhydryl oxidase 1 (Homo sapiens) (UniProt O00391)
- Sequence (O00391 whole entry, looked up): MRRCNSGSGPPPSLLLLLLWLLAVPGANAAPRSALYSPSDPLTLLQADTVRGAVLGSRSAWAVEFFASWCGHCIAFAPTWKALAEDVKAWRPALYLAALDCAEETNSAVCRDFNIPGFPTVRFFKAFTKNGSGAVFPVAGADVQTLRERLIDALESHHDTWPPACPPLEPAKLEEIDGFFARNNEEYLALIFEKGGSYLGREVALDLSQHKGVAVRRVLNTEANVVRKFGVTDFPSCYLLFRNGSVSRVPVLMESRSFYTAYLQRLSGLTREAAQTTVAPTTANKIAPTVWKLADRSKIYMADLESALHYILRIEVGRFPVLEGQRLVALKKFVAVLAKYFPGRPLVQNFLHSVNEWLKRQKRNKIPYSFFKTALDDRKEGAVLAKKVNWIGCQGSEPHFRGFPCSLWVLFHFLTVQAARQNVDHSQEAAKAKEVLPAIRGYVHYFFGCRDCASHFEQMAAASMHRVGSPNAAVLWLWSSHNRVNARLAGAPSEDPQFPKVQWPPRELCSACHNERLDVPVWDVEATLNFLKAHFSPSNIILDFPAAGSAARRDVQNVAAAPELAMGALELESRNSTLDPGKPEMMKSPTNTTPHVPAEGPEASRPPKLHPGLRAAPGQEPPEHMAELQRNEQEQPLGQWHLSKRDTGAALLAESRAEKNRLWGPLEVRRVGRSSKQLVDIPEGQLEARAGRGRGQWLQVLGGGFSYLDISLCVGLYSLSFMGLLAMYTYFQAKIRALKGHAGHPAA
- Procedure Text: inhibition of human sulfhydryl oxidase QSOX1 – biochemical, HyperBlu H2O2 luminescence, HTS, primary screen (AID 1347420); further: values above 100% were filed as inconclusive
- Condition Label: recombinant QSOX1, HyperBlu H2O2 luminescence; at 12.5 µM; hits give high values; active = any value above zero
The whole screen tested about 1,300 compounds, of which about 980 (75%) were called active. Not shown: some 4% with an inconclusive outcome. The list shows a part of the results.
Measure Name: inhibition (%)
Entry rule: numbers only, all in %.

Reported inhibition for N=C(N)c1ccc(N)cc1 was -0.4

Reported inhibition for O=C(O)[C@@H]1C[C@@H](C(=O)O)N1 was 4.5

Reported inhibition for CN(C)CCN(Cc1cccs1)c1ccccn1 was 4.7

Reported inhibition for O=C(O)[C@@H]1C[C@H](C(=O)O)N1 was -18.8

Reported inhibition for NS(=O)(=O)c1cc2c(cc1Cl)NCNS2(=O)=O was 9.5

Reported inhibition for COc1ccc(CN(CCN(C)C)c2ccccn2)cc1 was 36.6

Reported inhibition for CCCCCC[C@@H]([C@@H](C)O)n1cnc2c(N)ncnc21 was 7.4

====

- Measured On: Sulfhydryl oxidase 1 (Homo sapiens) (UniProt O00391)
- Procedure Text: inhibition of human sulfhydryl oxidase QSOX1 – biochemical, HyperBlu H2O2 luminescence, HTS, primary screen (AID 1347420); further: values above 100% were filed as inconclusive
- Condition Label: recombinant QSOX1, HyperBlu H2O2 luminescence; at 12.5 µM; hits give high values; active = any value above zero
Out of some 1,300 compounds screened, about 980 (75%) were called active. Another 4% or so got no clear call; they are omitted. The list shows a part of the results.
Measure Name: inhibition (%)
Entry rule: numbers only, all in %.

Reported inhibition for NC1(C(=O)O)CCc2cc(C(=O)O)ccc21 (centres undefined) was 11.9

Reported inhibition for CN(C)CCCN1c2ccccc2Sc2ccc(Cl)cc21 was 98.2

Reported inhibition for CCC(C)N(C)C(=O)c1cc2ccccc2c(-c2ccccc2Cl)n1 (centres undefined) was 14

Reported inhibition for CCC(=O)c1ccc2c(c1)N(CCCN(C)C)c1ccccc1S2 was 96.5

Reported inhibition for CC(C)COC(=O)OCN1C(=O)CN(CCN2CC(=O)N(COC(=O)OCC(C)C)C(=O)C2)CC1=O was 12.5

Reported inhibition for CNC1(C)C2CCC(C2)C1(C)C (centres undefined) was -4.4

Reported inhibition for Cn1cnc2c1c(=O)[nH]c(=O)n2C was 0

Reported inhibition for COc1cc2c(cc1OC)-c1cc(=Nc3c(C)cc(C)cc3C)n(C)c(=O)n1CC2 was 4.4

Reported inhibition for N#C/C(=C\c1ccc(O)c(O)c1)C(=O)c1ccc(O)c(O)c1 was 81.2

Reported inhibition for C#CCn1c(=O)c2c(ncn2C)n(C)c1=O was 4

Reported inhibition for CCc1c(C(=O)NCCc2ccc(N3CCCCC3)cc2)[nH]c2ccc(Cl)cc12 was 13.2

Reported inhibition for O=C1C2C=CC=CC2=NC(=S)N1CCN1CCC(=C(c2ccc(F)cc2)c2ccc(F)cc2)CC1 (centres undefined) was 4.1

Reported inhibition for CN1CCC2(CCN3CCc4c(oc5ccccc45)C3C2)N(C)C1=O (centres undefined) was 4.5

Reported inhibition for c1ccc(C(NCCNC(c2ccccc2)c2ccccc2)c2ccccc2)cc1 was 7.6

Reported inhibition for CCN(CC)CC(=O)Nc1c(C)cccc1C was 6.5

Reported inhibition for NNc1nncc2ccccc12 was 92.6

Reported inhibition for CN1CC(O)C(O)C(O)C1CO (centres undefined) was 11.1

Reported inhibition for CCCn1c(=O)c2c(ncn2C)n(CCC)c1=O was 11.9

Reported inhibition for Cc1cn([C@H]2C=C[C@@H](CO)O2)c(=O)[nH]c1=O was 21.2

====

- Measured On: Sulfhydryl oxidase 1 (Homo sapiens) (UniProt O00391)
- Procedure Text: inhibition of human sulfhydryl oxidase QSOX1 – biochemical, HyperBlu H2O2 luminescence, HTS, primary screen (AID 1347420); further: values above 100% were filed as inconclusive
- Condition Label: recombinant QSOX1, HyperBlu H2O2 luminescence; at 12.5 µM; hits give high values; active = any value above zero
Out of some 1,300 compounds screened, about 980 (75%) were called active. Another 4% or so got no clear call; they are omitted. Some of the results follow.
Would you mind telling me the reported inhibition of each entry?
Entry rule: numbers only, all in %.

Reported inhibition for NCC1OC(O[C@@H]2[C@H](O)C(OC3C(O)C(N)CC(N)C3OC3OC(CO)C(O)C(O)C3N)O[C@@H]2CO)C(N)C(O)C1O (stereo partly drawn) was -0.2

Reported inhibition for COc1ccc2c(c1)c(CC(=O)O)c(C)n2C(=O)c1ccc(Cl)cc1 was 15.5

Reported inhibition for CCCN(CCc1ccccc1)C1CCc2c(O)cccc2C1 (stereo not drawn) was 14

Reported inhibition for CCCCC[C@H](CC(=O)NO)C(=O)N[C@H](C(=O)N1CCC[C@H]1CO)C(C)C was -27.8

Reported inhibition for Cc1cccc(C)c1OCC(N)C(C)C (stereo not drawn) was 15.4

Reported inhibition for OCc1ccc(-c2nn(Cc3ccccc3)c3ccccc23)o1 was 0.6

Reported inhibition for CN(C)CCOC(=O)COc1ccc(Cl)cc1 was 2.2

Reported inhibition for COc1ccccc1N1CCN(CCCNc2cc(=O)n(C)c(=O)n2C)CC1 was 22

Reported inhibition for CCN1CCC[C@H]1CNC(=O)c1cc(S(N)(=O)=O)ccc1OC was 1

Reported inhibition for N[C@@H](Cn1ccc(=O)c(O)c1)C(=O)O was 10.1

Reported inhibition for O=C1NC(=O)/C(=C/c2ccc(-c3ccc(F)cc3O)o2)S1 was 0

Reported inhibition for N=C(N)N1CCc2ccccc2C1 was 18.5

Reported inhibition for CC(=O)NCCc1c[nH]c2ccc(O)cc12 was 92.2

Reported inhibition for CC(/C=C/c1cccc(Oc2ccc(F)cc2)c1)N(O)C(N)=O (stereo not drawn) was 17.2

Reported inhibition for O=C(O)c1ccccc1Nc1cccc(OCc2ccc3ccccc3n2)c1 was 70.1

Reported inhibition for COc1ccccc1N1CCN(CCN(C(=O)C2CCCCC2)c2ccccn2)CC1 was 40.4

Reported inhibition for CNc1cc(NS(=O)(=O)c2ccc(N)cc2)nc(NC)n1 was 1.3

Reported inhibition for CN1CCN(CCCN2c3ccccc3Sc3ccc(C(F)(F)F)cc32)CC1 was 97

Reported inhibition for CC1(C)CCC(NC(=O)[C@@H](N)CCC(=O)O)CC1 was 8.5

Reported inhibition for O=C1N=C(O)C(c2ccccc2)(c2ccccc2)N1 was -13.4

Reported inhibition for OC[C@H]1O[C@@H](n2cnc3cncnc32)[C@H](O)[C@@H]1O was 17

Reported inhibition for COc1ccc2c(c1)CCC1C2CC[C@@]2(C)C1CC[C@@H]2NCCCCCCN1C(=O)CCC1=O (stereo partly drawn) was 8.2

Reported inhibition for OCCN1CCN(CCCN2c3ccccc3Sc3ccc(C(F)(F)F)cc32)CC1 was 92.8

Reported inhibition for COc1ccc2c(c1)CCC1C2CC[C@@]2(C)C1CC[C@@H]2NCCCCCCN1C(=O)C=CC1=O (stereo partly drawn) was 7.6

Reported inhibition for OCCN1CCN(CC/C=C2/c3ccccc3Sc3ccc(C(F)(F)F)cc32)CC1 was 3.4

Reported inhibition for OCCN1CCN(CCCN2c3ccccc3C=Cc3ccccc32)CC1 was 47.2

Reported inhibition for CCN(Cc1ccncc1)C(=O)C(CO)c1ccccc1 (stereo not drawn) was 1.5

Reported inhibition for O=C1NC(=O)/C(=C/c2ccc3nccnc3c2)S1 was 5.7

Reported inhibition for CCCn1c(=O)c2[nH]c(-c3ccc(OCC(=O)NCCN)cc3)nc2n(CCC)c1=O was -3.6

Reported inhibition for O=C(O)CP(=O)(O)O was 10

Reported inhibition for COc1ccccc1N1CCN(CCCNc2c(C)c(=O)n(C)c(=O)n2C)CC1 was 16.8

Reported inhibition for Nc1ncnc2c1ncn2C1CCCO1 (stereo not drawn) was -13.6

Reported inhibition for O=C(O)CCc1ccc(NCc2cccc(Oc3ccccc3)c2)cc1 was 41.7

Reported inhibition for NCCCCNCCCN was -8.3

Reported inhibition for CCNc1nc2c(ncn2[C@H]2C[C@H](O)[C@@H](CO)O2)c(=O)[nH]1 was -2.5

Reported inhibition for CC[C@@H](C)[C@H]1O[C@]2(CC[C@@H]1C)C[C@@H]1C[C@@H](C/C=C(\C)[C@@H](O[C@H]3C[C@H](OC)[C@@H](O[C@H]4C[C@H](OC)[C@@H](O)[C@H](C)O4)[C@H](C)O3)[C@@H](C)/C=C/C=C3\CO[C@@H]4[C@H](O)C(C)=C[C@@H](C(=O)O1)[C@]34O)O2 was 10.8

Reported inhibition for CC(C)(C=O)Cc1cc(C(C)(C)C)c(O)c(C(C)(C)C)c1 was 2.8

Reported inhibition for Nc1nc2c(ncn2[C@@H]2O[C@H](CO)[C@@H](O)[C@@H]2O)c(=O)[nH]1 was 7.5

====

- Measured On: Sulfhydryl oxidase 1 (Homo sapiens)
- Procedure Text: inhibition of human sulfhydryl oxidase QSOX1 – biochemical, HyperBlu H2O2 luminescence, HTS, primary screen (AID 1347420); further: values above 100% were filed as inconclusive
- Condition Label: recombinant QSOX1, HyperBlu H2O2 luminescence; at 12.5 µM; hits give high values; active = any value above zero
Among all 1,300 compounds or so, about 980 (75%) were called active. Inconclusive results (about 4%) are left out. The list shows a part of the results.
Would you mind telling me the reported inhibition of each entry?
Entry rule: numbers only, all in %.

Reported inhibition for O=C(/C=C/c1ccc(O)c(O)c1)OCCc1ccccc1 was 98.9

Reported inhibition for Oc1cc2c(cc1O)C(c1ccccc1)CNCC2 (stereo not given) was 57.5

Reported inhibition for O=C1NC(c2cccc([N+](=O)[O-])c2)=CCN1c1ccccc1O was 24.8

Reported inhibition for Brc1c(Br)c(Br)c2[nH]cnc2c1Br was 18.9

Reported inhibition for Oc1cc2c(c(Cl)c1O)CCNCC2c1ccccc1 (stereo not given) was 93.6

Reported inhibition for NCCCCN was 14.6

Reported inhibition for O=c1cc(O)cc(/C=C/c2ccc(O)c(O)c2)o1 was 84.2

Reported inhibition for c1ccc2c(c1)CC(N1CCN(c3cccc4c3OCCO4)CC1)C2 was 10.4

Reported inhibition for COc1cc(CNC(=O)CCCCCCC(C)C)ccc1O was 15.1

Reported inhibition for C[C@]12CC[C@@H]3c4ccc(O)cc4CC[C@H]3[C@@H]1CCC2=O was 22.4
